Source listed as PubChem BioAssay (NCATS).

test: qHTS of pediatric cancer cell lines to identify multiple opportunities for drug repurposing: Primary screen for SK-N-MC cells (AID 1347093); details: SK-N-MC viability, CellTiter-Glo luminescence, 48 h; series mostly up to 46 µM
Records with an inconclusive call do not appear. The source made the active and inactive calls. Calls follow the shape of the dose curve; as a rule, active = well fitted cell-killing curve with a large enough effect; inconclusive = small, poorly fitted or top-dose-only effect; inactive = no such curve, though single readings can be large or run the other way.
Pick from active, inactive when you respond.

{"MOLECULE": "NC(=O)c1cc[n+](CC2=C(C(=O)[O-])N3C(=O)[C@@H](NC(=O)Cc4cccs4)[C@H]3SC2)cc1", "LABEL CLASS": "inactive"}

Would you mind telling me which call this test gave "C#C[C@]1(O)CC[C@H]2[C@@H]3CCC4=CC(=O)CC[C@@H]4[C@H]3CC[C@@]21C" ? inactive

// same read-out, input: "CCCCS(=O)(=O)N[C@@H](Cc1ccc(OCCCCC2CCNCC2)cc1)C(=O)O" inactive
